tested on: UACC-62; assay: NCI tumour cell line growth inhibition, 48 h
Active and inactive are the calls of the source. Rule as the data show it: active = GI50 up to about 1.1 µM and inactive = higher.
Classes used: Yes = active, No = inactive

[[record]]
compound = "CC(Cn1c2c3ccccc3ccc2c2oc(=O)c3ccccc3c21)N(C)C (stereo unspecified)"
label = "No"

[[record]]
compound = "CC(C)(C)COC(=O)C(C)(C)NC(=O)C(CC(=O)OCc1ccccc1)NC(=O)OCc1ccccc1 (stereo unspecified)"
label = "No"

[[record]]
compound = "CCCCCNC1=CC(=O)c2ccccc2C1=O"
label = "No"

[[record]]
compound = "CC1(C)OP23(NC(=O)OC2(C(F)(F)F)c2ccccc2O3)OC1(C)C (stereo unspecified)"
label = "No"

[[record]]
compound = "CC(=O)Oc1ccccc1C(=O)Nc1ncc([N+](=O)[O-])s1 [NITAZOXANIDE]"
label = "No"

[[record]]
compound = "c1ccc(-c2cs[s+]c2)cc1"
label = "No"

[[record]]
compound = "Cn1c(=O)nc2n(CCO)c(-c3ccccc3)c(-c3ccccc3)nc-2c1=O"
label = "No"

[[record]]
compound = "O=C(NNC(=O)c1ccc(Cl)cc1NC(=O)C12CC3CC(CC(C3)C1)C2)c1ccc(Cl)cc1"
label = "No"

[[record]]
compound = "O=C(NCCN1CCCCC1)c1cccc(I)c1"
label = "No"

[[record]]
compound = "CS/C(=N/S(=O)(=O)c1ccc(Cl)cc1)NCCCN/C(=N\\S(=O)(=O)c1ccc(Cl)cc1)SC"
label = "No"

[[record]]
compound = "CN1C/C(=C\\c2cccs2)C2=NN(C)C(c3cccs3)C2C1 (stereo unspecified)"
label = "No"

[[record]]
compound = "COc1ccc(C(=O)NC2=C(Cl)C(=O)c3ccccc3C2=O)cc1"
label = "Yes"

[[record]]
compound = "CCOC(=O)CNC(SC)=C(C#N)C#N"
label = "No"

[[record]]
compound = "S=C1SC(c2ccc(Cl)cc2)(c2ccc(Cl)cc2)c2ccccc21"
label = "No"

[[record]]
compound = "Cc1nc(NC(=S)NC(=O)c2ccc(Cl)c(Cl)c2)sc1C(=O)/C=C/c1ccccc1[N+](=O)[O-]"
label = "No"

[[record]]
compound = "O=C(/C(Cl)=C/c1ccccc1)c1ccccc1"
label = "No"

[[record]]
compound = "C/C=C/C(C/C=C(\\C)CO[Si](C)(C)C(C)(C)C)O[Si](C)(C)C(C)(C)C (stereo unspecified)"
label = "No"

[[record]]
compound = "COc1ccc(N2C(=O)/C(=C/c3ccc(N(CCC#N)CCC#N)cc3C)N=C2c2cc([N+](=O)[O-])ccc2Cl)cc1"
label = "No"

[[record]]
compound = "N#Cc1cccc2c1Sc1ccccc1N2"
label = "No"

[[record]]
compound = "CCCCCCCCC[C@@H]1C[C@@H]2CCC3C(C(=O)OCCCCNC(=O)OCc4ccccc4)=C(C)N=C(N1)N32 (stereo partly specified)"
label = "No"

[[record]]
compound = "Cc1ccc(NC(=O)C23CC4CC(CC(C4)C2)C3)c(C(=O)NNC(=O)c2ccc(Cl)cc2)c1"
label = "No"


Hey, just so you know, these numbers are from ChEMBL document CHEMBL1201862.
